Below is a list of entries, each paired with its recorded melting point value.

Take a look at these entries with their results.
CCOC(=O)CCCOc1cccc2cc(/C(C)=C/C(=O)N3CCOCC3)oc12; 90 to 94.8 °C
N#CCC(=O)Nc1c(C(=O)c2ccc(Cl)cc2)oc2ccc(Br)cc12; 245.4 to 249.5 °C
C/C(O)=C(\C#N)C(=O)Nc1c(C#N)oc2ccc(Br)cc12; 206.3 to 208.3 °C
CCN(CC)C(=O)/C=C(\C)c1ccc2oc(C(=O)Nc3cccc(OC)c3)c(NC(=O)c3cnoc3C)c2c1; 204 to 206 °C
COc1ccc(/C=C/C(=O)c2oc3ccc(Br)cc3c2NC(=O)CNCc2ccccc2)cc1; 174.2 to 176.5 °C
CC(=O)c1oc2ccc(/C(C)=C/C(=O)N3CCN(Cc4ccccc4)CC3)cc2c1N; 144 to 148.3 °C
O=C(/C=C/c1ccccc1)Nc1c(Cl)oc2ccc(Br)cc12; 248.7 to 250.3 °C
CCOC(=O)C(CSCc1ccccc1)NC(=O)/C=C/C=C(\Cl)c1cc2cccc(OCCCCl)c2o1 (centres unmarked); 116.5 to 118.3 °C

Any idea what melting point was measured for C/C(O)=C(/C#N)C(=O)NC(C)c1cc2cccc(OCC(=O)O)c2o1 (centres unmarked) ?
169.9 to 173.2 °C

Query COc1ccc(NC(=O)/C=C(/C)c2cc3cccc(OC(c4ccccc4)c4ccccc4)c3o2)cc1OC next
93.9 to 94.5 °C

Query CCN(CC)C(=O)/C=C(\C)c1ccc2oc(C(C)=O)c(NC(=O)/C(C#N)=C(/C)O)c2c1 next
169.3 to 171 °C

Query CCN(CC)C(=O)/C=C(\C)c1ccc(OCCCCl)c2oc(C(C)=O)cc12 next
80.6 to 82.1 °C

Query C/C=C/C(=O)Nc1c(Cl)oc2ccc(Br)cc12 next
200 to 202 °C

Query CCOC(=O)c1oc2ccc(/C(C)=C/C(=O)N(CC)CC)cc2c1NC(=O)c1cnoc1C next
138.9 to 141.2 °C

Query C/C=C/C(=O)NC(C)c1cc2ccccc2o1 (centres unmarked) next
98 to 100 °C

Query C/C(=C\C(=O)N1CCOCC1)c1ccc2oc(/C(C)=C/C(=O)O)cc2c1 next
202.6 to 204.4 °C

Query CCNS(=O)(=O)c1ccc(OCCCC(=O)O)c2oc(C(C)NC(=O)/C(C#N)=C(\C)O)cc12 (centres unmarked) next
169.3 to 170.2 °C

----------
Below is a list of entries, each paired with its recorded melting point value.

Take a look at these entries with their results.
COc1ccc(CCNC(=O)/C=C(\C)c2cc3cccc(OC(C)c4ccccc4)c3o2)cc1OC (stereo not drawn) [Example 164]; 109 to 113 °C
O=C(/C=C/c1ccccc1)Nc1c(C(=O)O)oc2ccccc12 [Example 121]; 197.8 to 200.2 °C
CCOC(=O)CCCOc1cccc2cc(/C(Cl)=C/C=O)oc12 [Example 140]; 67 to 69.5 °C
C/C=C/C(=O)Nc1c(C#N)oc2ccc(Br)cc12 [Example 117]; 206.5 to 208.2 °C
CCOC(=O)CCCOc1cccc2cc(/C(C)=C/C(=O)NCC(=O)OCC)oc12 [Example 40]; 96.2 to 98.5 °C
CCCCc1oc2ccccc2c1/C(Cl)=C/C=C/C(=O)Nc1ccc(OC)cc1 [Example 135]; 91.3 to 93.2 °C
CCN(CC)C(=O)/C=C(\C)c1ccc2oc(C(=O)c3ccc(C#N)cc3)c(NC(=O)/C(C#N)=C(/C)O)c2c1 [Example 109]; 219.5 to 222.8 °C
COc1cccc2c(NC(=O)CCCl)c(C(C)=O)oc12 [Example 204]; 169.1 to 170.2 °C
COc1ccc(NC(=O)/C(C#N)=C(/C)O)c2cc(C(C)=O)oc12 [Example 112]; 243.4 to 246.4 °C
CC(=O)Nc1c(C(=O)/C=C/N(C)C)oc2ccc(Br)cc12 [Example 194]; 221.1 to 222 °C

Any idea what melting point was measured for Cc1nc(-c2oc3c(Cl)cccc3c2-c2ccc(Cl)cc2)cs1 [Example 214] ?
156.4 to 158.4 °C

Query CCN(CC)C(=O)/C=C(\C)c1ccc2oc(C(C)=O)c(NC(=O)Cc3ccc(OC)cc3)c2c1 [Example 21] next
121.8 to 122.3 °C

Query COc1ccc2c(NC(=O)/C=C/c3ccccc3)c(C(C)=O)oc2c1 [Example 120] next
142 to 144.5 °C

Query COc1ccc(/C=C/C(=O)c2oc3ccc(Br)cc3c2NC(=O)CCNCc2ccccc2)cc1 [Example 203] next
123.8 to 126.5 °C

Query Cc1oncc1C(=O)Nc1c(C#N)oc2ccc(Br)cc12 [Example 85] next
239.2 to 241.9 °C

Query CCN(CC)C(=O)/C=C(\C)c1cc2c(Br)ccc(OCCCC(=O)O)c2o1 [Example 36] next
125.5 to 127 °C

Query COc1cccc2cc(C(C)NC(C)=O)oc12 (stereo not drawn) [Example 191] next
90 to 91.8 °C

Query COc1cccc2c(NC(=O)c3cnoc3C)c(C(C)=O)oc12 [Example 80] next
181 to 181.7 °C

----------
Below is a list of entries, each paired with its recorded melting point value.

CC(=O)c1oc2ccc(/C(C)=C/C(=O)N3CCOCC3)cc2c1N; 256.4 to 262.1 °C

Any idea what melting point was measured for CCOC(=O)CCCOc1cccc2cc(/C(C)=C/C(=O)Nc3ccc(OC)cc3)oc12 ?
141.3 to 141.5 °C

Query COc1cc(C(=O)Nc2c(C(C)=O)oc3ccc(Br)cc23)cc(OC)c1OC next
212 to 212.3 °C

Query COc1cccc(NC(=O)/C=C/C=C(\Cl)c2cc3cccc(OC)c3o2)c1 next
194.3 to 197.3 °C

Query CCOC(=O)c1oc2ccccc2c1NC(=O)c1cnoc1C next
166 to 168.2 °C

Query COc1cccc(NC(=O)/C=C(\C)c2cc3cccc(OC(c4ccccc4)c4ccccc4)c3o2)c1 next
167.2 to 168.2 °C

Query CCOC(=O)CCCOc1cccc2cc(/C(C)=C/C(=O)NCCc3ccc(OC)c(OC)c3)oc12 next
114 to 115.5 °C

Query CC(=O)c1oc2ccc(C#N)cc2c1NC(=O)/C(C#N)=C(/C)O next
216 to 218 °C

Query COc1ccc(NC(=O)c2cnoc2C)c2cc(C(C)=O)oc12 next
201.8 to 205.9 °C

Query C/C=C/C(=O)Nc1c(C(C)=O)oc2c(OC)cccc12 next
165.7 to 168 °C

Query COc1ccc2oc(-c3nc(N=CN(C)C)sc3C=O)c(-c3ccc(Cl)cc3)c2c1 next
203.5 to 205 °C

Query C/C(=C\C(=O)N1CCOCC1)c1ccc2oc(C(=O)c3ccccc3)cc2c1 next
115.5 to 117 °C

Query CCOC(=O)/C=C/C=C(\Cl)c1cc2cccc(OC)c2o1 next
113.9 to 117.6 °C

Query CC(=O)c1cc2c(/C(C)=C/C(=O)N3CCN(c4ccccc4)CC3)ccc(OC(c3ccccc3)c3ccccc3)c2o1 next
152 to 160 °C

Query Cc1oncc1C(=O)Nc1c(C(=O)c2ccc(C#N)cc2)oc2ccc(Br)cc12 next
236.3 to 238.9 °C

Query CC(=O)OC(C)c1oc2ccccc2c1NC(=O)c1cnoc1C (stereo not drawn) next
130.2 to 132.9 °C

Query CCN(CC)C(=O)/C=C(\C)c1ccc2oc(C(=O)c3ccc(C#N)cc3)c(N)c2c1 next
216.4 to 218.4 °C

Query COc1ccc2oc(-c3csc(N=CN(C)C)n3)c(-c3ccc(Cl)cc3)c2c1 next
142.7 to 144.3 °C

----------
measured metric: melting point

Take a look at these entries with their results.
CC(=O)c1oc2ccccc2c1NC(=O)/C(C#N)=C(/C)O [Example 66]; 206.1 to 208.1 °C
COc1ccc(Br)c2c(NC(C)=O)c(C(C)=O)oc12 [Example 211]; 235.3 to 237.8 °C
COc1cccc2cc(C(C)NC(=O)/C=C/c3ccccc3)oc12 (centres unmarked) [Example 132]; 154.5 to 156.5 °C
CC(=O)c1oc2ccc(/C(C)=C/C(=O)N3CCN(c4ccccc4)CC3)cc2c1NC(=O)c1cnoc1C [Example 75]; 201.5 to 204.4 °C

Any idea what melting point was measured for CCN(CC)C(=O)/C=C(\C)c1ccc2oc(C(=O)Nc3cccc(OC)c3)c(N)c2c1 [Example 158] ?
155 to 157 °C

Query C/C=C/C(=O)Nc1c(Cl)oc2c(OC)cccc12 [Example 187] next
216 to 217 °C

Query COc1cccc(NC(=O)/C=C(/C)c2cc3c(S(=O)(=O)NCCc4ccc(OC)c(OC)c4)ccc(OCCCCl)c3o2)c1 [Example 52] next
146.1 to 150 °C

Query CN(C)/C=C/C(=O)c1oc2ccc(Br)cc2c1NC(=O)/C=C/c1ccccc1 [Example 176] next
248 °C

Query C/C=C/C(=O)Nc1c(C(C)=O)oc2cc(OC)ccc12 [Example 116] next
153.8 to 155.7 °C

Query CCN(CC)C(=O)/C=C(\C)c1ccc(OC(c2ccccc2)c2ccccc2)c2oc(C(C)=O)cc12 [Example 4] next
163.3 to 165.2 °C

Query CCNS(=O)(=O)c1ccc(OCCCC(=O)OCC)c2oc(C(C)NC(=O)/C(C#N)=C(\C)O)cc12 (centres unmarked) [Example 128] next
121 to 122.1 °C

Query C/C(O)=C(\C#N)C(=O)NC(C)c1cc2cccc(OCCCC(=O)O)c2o1 (centres unmarked) [Example 126] next
147.9 to 148.6 °C

Query COc1cccc2cc(/C(Cl)=C/C=C/C(=O)N3CCCCC3)oc12 [Example 144] next
142.2 to 144.4 °C

Query COc1cccc2c(NC(=O)/C=C/c3ccccc3)c(Cl)oc12 [Example 181] next
220 to 221.3 °C

Query CCN(CC)C(=O)/C=C(\C)c1cc2c(Br)cc(Br)c(OCCCC(=O)O)c2o1 [Example 31] next
121 to 123 °C

Query COc1ccc2oc(-c3nc(N=CN(C)C)sc3/C=N/CCO)c(-c3ccc(Cl)cc3)c2c1 [Example 223] next
167.8 to 169.2 °C

Query Cc1oncc1C(=O)Nc1c(C(C)O)oc2ccc(Br)cc12 (centres unmarked) [Example 70] next
125.2 to 128.8 °C

The measured values listed here are drawn from patent US7638540B2.
